# study-target: NAMPT (Homo sapiens, UniProt P43490)
# Sequence (P43490 whole entry): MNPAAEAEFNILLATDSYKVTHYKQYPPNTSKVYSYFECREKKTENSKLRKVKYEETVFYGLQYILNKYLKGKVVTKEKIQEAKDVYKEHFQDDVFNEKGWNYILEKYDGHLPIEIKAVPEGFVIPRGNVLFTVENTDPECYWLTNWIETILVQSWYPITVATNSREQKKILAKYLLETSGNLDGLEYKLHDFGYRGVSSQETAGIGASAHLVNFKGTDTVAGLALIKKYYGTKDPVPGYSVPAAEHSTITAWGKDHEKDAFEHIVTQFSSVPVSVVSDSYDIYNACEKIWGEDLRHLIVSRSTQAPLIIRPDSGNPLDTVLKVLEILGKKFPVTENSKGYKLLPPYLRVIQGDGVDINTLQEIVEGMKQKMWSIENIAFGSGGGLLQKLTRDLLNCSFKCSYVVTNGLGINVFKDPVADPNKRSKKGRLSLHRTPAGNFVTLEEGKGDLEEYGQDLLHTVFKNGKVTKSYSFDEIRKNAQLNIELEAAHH
# experimental-details: TR-FRET Binding Assay of NAMPT with PRPP
# setup-conditions: with 200 μM PRPP and 2.5 mM ATP; 2 nM NAMPT, 2 nM probe, 16 hours equilibration
# Description: Time-Resolved Fluorescence Resonance Energy Transfer (TR-FRET) Binding Assay of NAMPT with PRPP Compound handling and data processing were identical to the assay in the absence of substrates (above). Final concentrations were 1× assay buffer, 2% DMSO, 2 nM NAMPT, 2 nM probe, 1 nM Tb-anti-His antibody (Invitrogen # PV5895), 200 μM PRPP and 2.5 mM ATP. Reactions were equilibrated for 16 hours prior to measurement to allow for potential enzymatic modification of test compounds.
pIC50: −log10 of the molar value.
property-measured: pIC50

Examples from the recorded data:
O=C(NCc1ccn2ccnc2c1)c1cnc(N2C(=O)OC[C@@H]2COCc2ccccc2)s1 [Example 188] | 8.29
O=C(CC1CCOCC1)Nc1ccc(C(=O)NCc2ccc3nccn3c2)cc1 [Example 79] | 8.16
O=C(Nc1ccc(C2CCN(C(=O)C3CCCO3)CC2)cc1)Nc1ccc2nccn2c1 (stereo not drawn) [Example 113] | 9.77
O=C(NCc1ccn2ccnc2c1)c1ccc(-c2cnn(CC3CCOCC3)c2)o1 [Example 480] | 9.47

A. O=C(NCc1ccn2ccnc2c1)c1cnc(C2CCN(C(=O)c3ccccc3F)CC2)s1 [Example 802]
B. CC(C)CCNC(=O)c1ccc(C(=O)NCc2ccn3ccnc3c2)cc1 [Example 393]
C. O=C(NCc1ccn2ccnc2c1)c1ccc(C2CCN(C(=O)CC3CCCC3)C2)cc1 (stereo not drawn) [Example 581]
**Q:** Rank order required: pIC50, descending. Arrange the labels as the request states and list them.
**A:** A, C, B

A. O=C(CC1CCOC1)Nc1ccc(C(=O)NCc2ccc3ncc(Cl)n3c2)cc1 (stereo not drawn) [Example 398]
B. CC1(Cn2cc(-c3ccc(C(=O)NCc4ccn5ccnc5c4)s3)cn2)CCNCC1 [Example 789]
**Q:** When A and B are compared, which has the higher number for pIC50? Record your answer as the label of the chosen record.
**A:** B
(B: 9.36, A: 9.10)

Reference for the values: patent US9187472B2
